Experiment: plasma and brain PK in rat
Type: in vivo
Conditions: rat, brain; read-out: Brain/plasma Ratio
OBSERVABLE: Kp

Quick one: Kp for COc1cc(C(F)(F)F)ccc1CCNCc1ccccc1O ?
19.6

====

Experiment: plasma and brain PK in mice
Type: in vivo
Settings: mouse, plasma, IM, read-out: IM f (%)
OBSERVABLE: bioavailability (%)
Note: unit % is implicit; provide only the numeric part.

Quick one: bioavailability for CSc1ccccc1CNCCc1ccc(C#N)cc1O ?
144

====

Experiment: plasma and brain PK in rat
Type: in vivo
Conditions: rat, plasma; read-out: T1/2 Vz (converted)
OBSERVABLE: half-life (h)
Note: unit h is implicit; provide only the numeric part.

Quick one: half-life for COc1cc(C(F)(F)F)ccc1CCNCc1ccccc1O ?
1.38

Can you check CSc1ccccc1CNCCc1ccc(C#N)cc1O next?
2.1
